Data credit: paper PMC9321663

Field: Cell Count ACC. Provide a value for each of the compounds that follow.
# Test system: RUES2-GLR cells
# experiment-notes: in vitro
# settings: human, 48 h
Give the value in µM but do not write µM after it.

input: Write down Cell Count ACC measured for item Cc1nc(Nc2ncc(C(=O)Nc3c(C)cccc3Cl)s2)cc(N2CCN(CCO)CC2)n1
output: 0.005325

input: Write down Cell Count ACC measured for item CC1=C(/C=C/C(C)=C/C=C/C(C)=C/C(=O)O)C(C)(C)CCC1
output: 3.839

input: Write down Cell Count ACC measured for item Oc1cc(O)c2c(c1)O[C@H](c1ccc(O)c(O)c1)[C@@H](O)C2
output: 180.189

input: Write down Cell Count ACC measured for item Cc1ccc(NC(=O)c2ccc(CN3CCN(C)CC3)cc2)cc1Nc1nccc(-c2cccnc2)n1
output: 9.465

input: Write down Cell Count ACC measured for item O=C1Cc2cc(CCN3CCN(c4nsc5ccccc45)CC3)c(Cl)cc2N1
output: 1.527

input: Write down Cell Count ACC measured for item CN1CCN2c3ccccc3Cc3ccccc3C2C1 (stereo not shown)
output: 18.6008

input: Write down Cell Count ACC measured for item NC(=O)N1c2ccccc2C=Cc2ccccc21 [Carbamazepine]
output: 57.7753

input: Write down Cell Count ACC measured for item CN(Cc1cnc2nc(N)nc(N)c2n1)c1ccc(C(=O)N[C@@H](CCC(=O)O)C(=O)O)cc1 [Methotrexate]
output: 0.3474

input: Write down Cell Count ACC measured for item CC1=C(/C=C/C(C)=C/C=C/C(C)=C/CO)C(C)(C)CCC1
output: 12.6287

input: Write down Cell Count ACC measured for item O=c1[nH]cc(F)c(=O)[nH]1
output: 4.179

input: Write down Cell Count ACC measured for item c1cc(-c2cnn3cc(-c4ccc(OCCN5CCCCC5)cc4)cnc23)ccn1
output: 6.307

input: Write down Cell Count ACC measured for item CC(C)(c1ccc(O)cc1)c1ccc(O)cc1
output: 21.1157

input: Write down Cell Count ACC measured for item CO[C@H]1/C=C/O[C@@]2(C)Oc3c(C)c(O)c4c(O)c(c(/C=N/N5CCN(C)CC5)c(O)c4c3C2=O)NC(=O)/C(C)=C\C=C\[C@H](C)[C@H](O)[C@@H](C)[C@@H](O)[C@@H](C)[C@H](OC(C)=O)[C@@H]1C
output: 18.1066

---

# System: SOX17 (endoderm marker) in RUES2-GLR cells
# experiment-notes: DevTox GLR-Endo assay: increase in percent SOX17-positive cells (AEID 3093, Sox17_up)
# Assay type: cell-based, human
# settings: tcpl plot AEID3093, COFF 20.3
Field: HIT−CALL. Provide a value for each of the molecules that follow.
Could you respond with only the numeric value?

input: GET HIT−CALL where system = SOX17 (endoderm marker) in RUES2-GLR cells and item = CCCc1cc(=O)[nH]c(=S)[nH]1
output: 0

input: GET HIT−CALL where system = SOX17 (endoderm marker) in RUES2-GLR cells and item = Nc1nc2c(ncn2COCCO)c(=O)[nH]1
output: 0

input: GET HIT−CALL where system = SOX17 (endoderm marker) in RUES2-GLR cells and item = C[C@@H]1C[C@H]2[C@@H]3CCC4=CC(=O)C=C[C@]4(C)[C@@]3(F)[C@@H](O)C[C@]2(C)[C@@]1(O)C(=O)CO
output: 0

input: GET HIT−CALL where system = SOX17 (endoderm marker) in RUES2-GLR cells and item = O=C(O)c1cc(/N=N/c2ccc(S(=O)(=O)Nc3ccccn3)cc2)ccc1O
output: 0

input: GET HIT−CALL where system = SOX17 (endoderm marker) in RUES2-GLR cells and item = CS(=O)(=O)OCCCCOS(C)(=O)=O
output: 0

input: GET HIT−CALL where system = SOX17 (endoderm marker) in RUES2-GLR cells and item = O=C1CCC(N2C(=O)c3ccccc3C2=O)C(=O)N1 (stereo not shown) [Thalidomide]
output: 0

input: GET HIT−CALL where system = SOX17 (endoderm marker) in RUES2-GLR cells and item = O=c1[nH]cc(F)c(=O)[nH]1
output: 0

---

# Test system: SOX2 (ectoderm and pluripotency marker) in RUES2-GLR cells
# experiment-notes: DevTox GLR-Endo assay: increase in percent SOX2-positive cells (AEID 3095, Sox2_up);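 note: cells exposed to test chemicals for 48 h in total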
# settings: tcpl plot AEID3095, maximum median response
Where a name gives a salt, the structure may show the parent alone.
measure: MAX_MED (Percent Activity)
Give the value in Percent Activity but do not write Percent Activity after it.

input: Write down MAX_MED measured for item CCCC(CCC)C(=O)O [Valproic Acid]
output: 0.475

input: Write down MAX_MED measured for item COc1ccc2c(c1)c(CC(=O)O)c(C)n2C(=O)c1ccc(Cl)cc1 [Indomethacin]
output: 6.65

input: Write down MAX_MED measured for item COc1cc2ncnc(Nc3ccc(F)c(Cl)c3)c2cc1OCCCN1CCOCC1 [Gefitinib]
output: 4.85

input: Write down MAX_MED measured for item CCN(CC)CCNC(=O)c1c(C)[nH]c(/C=C2\C(=O)Nc3ccc(F)cc32)c1C [Sunitinib]
output: 3.23

input: Write down MAX_MED measured for item COc1cc2c(Nc3ccc(Br)cc3F)ncnc2cc1OCC1CCN(C)CC1 [Vandetanib]
output: 10.8

input: Write down MAX_MED measured for item NC(=O)N1c2ccccc2C=Cc2ccccc21 [Carbamazepine]
output: 0.576

input: Write down MAX_MED measured for item C[C@](N)(Cc1ccc(O)c(O)c1)C(=O)O [Methyldopa]
output: 0.534

input: Write down MAX_MED measured for item Nc1nc2c(ncn2COCCO)c(=O)[nH]1 [Acyclovir]
output: 0.473

input: Write down MAX_MED measured for item CN1CCN2c3ccccc3Cc3ccccc3C2C1 (stereo not drawn) [Mianserin]
output: 5.45

input: Write down MAX_MED measured for item NC(=O)NO [Hydroxyurea]
output: 0.557

input: Write down MAX_MED measured for item CC(=O)CC(c1ccccc1)c1c(O)c2ccccc2oc1=O (stereo not drawn) [Warfarin]
output: 0.495

input: Write down MAX_MED measured for item Nc1nc2ncc(CNc3ccc(C(=O)N[C@@H](CCC(=O)O)C(=O)O)cc3)nc2c(=O)[nH]1 [Folic Acid]
output: 0.515

input: Write down MAX_MED measured for item CCCCOC(=O)c1ccc(O)cc1 [Butylparaben, 4−Hydroxybenzoic acid butyl ester]
output: 4.42

input: Write down MAX_MED measured for item CN(C)CCOC(c1ccccc1)c1ccccc1 [Diphenhydramine]
output: 1.57

input: Write down MAX_MED measured for item CCCCC(CC)COC(=O)c1ccccc1C(=O)O (stereo not drawn) [MEHP]
output: 1.77

input: Write down MAX_MED measured for item CN(Cc1cnc2nc(N)nc(N)c2n1)c1ccc(C(=O)N[C@@H](CCC(=O)O)C(=O)O)cc1 [Methotrexate]
output: 0.899

input: Write down MAX_MED measured for item CCCc1cc(=O)[nH]c(=S)[nH]1
output: 0.601

input: Write down MAX_MED measured for item Nc1cccc2c1C(=O)N(C1CCC(=O)NC1=O)C2=O (stereo not drawn) [Pomalidomide]
output: 67.4

input: Write down MAX_MED measured for item CC(=O)Nc1ccc(O)cc1 [Acetaminophen]
output: 0.603

input: Write down MAX_MED measured for item Cn1c(=O)c2c(ncn2C)n(C)c1=O [Caffeine]
output: 0.416

input: Write down MAX_MED measured for item [H]/N=C(/NCCCCC)N/N=C/c1c[nH]c2ccc(OC)cc12 [Tegaserod Maleate]
output: 2.79

---

Field: Emax. Provide a value for each of the compounds that follow.
# Test system: SOX17 (endoderm marker) in RUES2-GLR cells
# experiment-notes: DevTox GLR-Endo assay: increase in percent SOX17-positive cells (AEID 3093, Sox17_up)
# Assay type: cell-based, human
# settings: Homo sapiens; tcpl plot AEID3093, maximum mean response; read-out: MAX_MEAN
# Method: The total test chemical incubation period was 48 h. (Supplementary Materials).

input: Write down Emax measured for item O=C1Cc2cc(CCN3CCN(c4nsc5ccccc45)CC3)c(Cl)cc2N1
output: 3.27%

input: Write down Emax measured for item NC(=O)c1ccc(N)nc1 [6-Aminonicotinamide, 6−aminopyridine−3−carboxamide]
output: 2.7%

input: Write down Emax measured for item c1cc(-c2cnn3cc(-c4ccc(OCCN5CCCCC5)cc4)cnc23)ccn1
output: 9.04%

input: Write down Emax measured for item C[C@](N)(Cc1ccc(O)c(O)c1)C(=O)O
output: 13.8%

input: Write down Emax measured for item Cc1cn([C@H]2C=C[C@@H](CO)O2)c(=O)[nH]c1=O
output: 8.07%

input: Write down Emax measured for item O=C(O)c1cccnc1
output: 11.3%

input: Write down Emax measured for item COc1ccc2c(c1)c(CC(=O)O)c(C)n2C(=O)c1ccc(Cl)cc1
output: 0.625%

input: Write down Emax measured for item Oc1cc(O)c2c(c1)O[C@H](c1ccc(O)c(O)c1)[C@@H](O)C2
output: 6.18%
